Conditions: in isopropanol, 331.15 K
endpointName: solubility (mole fraction)

INPUT: Give the value of solubility (mole fraction) reported for the following: "Cc1nc(CCl)nc2ccccc12"
OUTPUT: 0.467

----------
Details: in acetone, 311.15 K
endpointName: solubility (mole fraction)
API doc: respond with a numeric literal and nothing else, no unit.

INPUT: Give the value of solubility (mole fraction) reported for the following: "Cc1nc(CCl)nc2ccccc12"
OUTPUT: 0.449

----------
Conditions: in acetonitrile, 306.15 K
endpointName: solubility (mole fraction)
API doc: respond with a numeric literal and nothing else, no unit.

INPUT: Give the value of solubility (mole fraction) reported for the following: "Cc1nc(CCl)nc2ccccc12"
OUTPUT: 0.22
